- testName: Photo stability test (impurity by HPLC after 1.2 million lux-hours)
- Assay type: physicochemical
- conditionParameters: after preservation under 1.2 million lux-hours of integrated luminance, 25° C.
measuredMetric: Impurity Increase Amount (%)
// note: answer is a bare numeric in %

Some solved entries appear below for comparison.
CC(C)c1nnc(-c2ccc(-c3ccccc3)nc2)n1-c1cccc2nonc12 [γ-form crystal]: 0.0
CC(C)c1nnc(-c2ccc(-c3ccccc3)nc2)n1-c1cccc2nonc12 [α-form crystal]: 0.0
CC(C)c1nnc(-c2ccc(-c3ccccc3)nc2)n1-c1cccc2nonc12 [β-form crystal]: 0.0

Here's the next entry for you.
Impurity Increase Amount (%) for CC(C)c1nnc(-c2ccc(-c3ccccc3)nc2)n1-c1cccc2nonc12 [δ-form crystal, reference compound] is 1.0

These measurements were taken from patent US8278333B2.
